Each recorded value in this set is attributed to patent US20030236190A1.

- Assayed system: human insulin receptor (HIR) (human, UniProt P06213 28-1382, limits assumed)
- Test protocol: 125I-insulin competition, solubilised HIR
Non-standard residues stand in square brackets, D forms with d. No end group written: not given here. Tyr(3-I) = N[C@@H](Cc1ccc(O)c(I)c1)C(=O)O
Observation type: Kd (nM)
Respond numerically; units are nM and should not be typed.

Solved cases below.
>>> assay_result("WLDQEWAWVQCEVYGRGCPSDSDWAGYEWFEEQLD [S523]")
4.3
>>> assay_result("SLEEEWAQVECEVYGRGCPSFYDWFERQL [S531]")
0.075
>>> assay_result("SLEEEWAQIECEVWGRGCPSESFYDWFERQL [S558]")
0.019
>>> assay_result("LEEEWAQVECEV[Tyr(3-I)]GRGCSGSLDESFYDWFERQLG (cysteine pairing not given here) [S588]")
0.18
>>> assay_result("WLDQEWAWVQCEVYGRGCPSGGSGGSGRVDWLQRNANFYDWFVAELG [S511]")
3.8

Incoming: Would you kindly share the measured Kd for LDQAWAWVQCEVYGRGCPSESFYDWFERQL [S497] ?
Outgoing: 2.5

Incoming: Subsequent entry: SLEEEWAQVECEVYGRGCPSESFYDWFERQL [S530]
Outgoing: 0.008

Incoming: Continue with HHHHHHKLDQEWAWVQCEVYGRGCPSESFYDWFERQLG [S481]
Outgoing: 13

Incoming: Check SLEEEWAQVECEVYGRGCPSESFYDWF[dV]RQLG (cysteine pairing not given here) [S555] too.
Outgoing: 0.057

Incoming: Further, for ESFYDWFERQ [S400] ?
Outgoing: 630

Incoming: Ok, now S441 (not fully specified (bridges); cysteine pairing not given here; also: K16 of chain 1 chemically linked to C-terminus of chain 2 (C-C on a lysine)) peptide 1: ESFYDWFERQLGGGGK peptide 2: WAWVQCEVYGRGCPS
Outgoing: 120
